Assay: molar heat capacity at constant pressure
Details: 283.15 K; 101.3 kPa; Liquid; Small sample (50 mg) DSC
Numbers after ± are expanded uncertainties.
ATTRIBUTE MEASURED: molar heat capacity at constant pressure
Units required after the number.

Some compounds with recorded molar heat capacity at constant pressure:
>  <COMPOUND>
CCn1cc[n+](C)c1.O=C([O-])C(F)(F)F [1-ethyl-3-methylimidazolium trifluoroacetate]

>  <RESULT>
308 ± 25 J/K/mol

$$$$
>  <COMPOUND>
CCOS(=O)(=O)[O-].CCn1cc[n+](C)c1 [1-ethyl-3-methylimidazolium ethyl sulfate]

>  <RESULT>
365 ± 30 J/K/mol

$$$$
>  <COMPOUND>
CCn1cc[n+](C)c1.O=S(=O)([O-])C(F)(F)F [1-ethyl-3-methylimidazolium trifluoromethanesulfonate]

>  <RESULT>
353 ± 29 J/K/mol

$$$$

In the following, a different compound is considered.
Lab note: `O` gave molar heat capacity at constant pressure of 75 ± 6 J/K/mol

Sourced from the NIST ThermoML archive (doi:10.1021/je800248w)
